Listed here: compounds with reported IC50 for Prostaglandin G/H synthase 1 (Homo sapiens).

COc1cc(/C=C/C(=O)NCCc2c[nH]c3ccc(O)cc23)cc(OC)c1O ... > 400 µM
O=C(O)/C=C/c1ccc(O)c(O)c1 ... > 400 µM
COc1cc(/C=C/C(=O)O)cc(OC)c1O [SINAPINATE] ... 39.2 µM

Quick check: IC50 of O=C(/C=C/c1ccc(O)c(O)c1)NCCc1c[nH]c2ccc(O)cc12 ?
> 400 µM

Entry to check: NCCc1c[nH]c2ccc(O)cc12
> 400 µM

----------
inhibition: recorded values
Measurement Target: Prostaglandin G/H synthase 2 (Homo sapiens)
Sequence (whole entry): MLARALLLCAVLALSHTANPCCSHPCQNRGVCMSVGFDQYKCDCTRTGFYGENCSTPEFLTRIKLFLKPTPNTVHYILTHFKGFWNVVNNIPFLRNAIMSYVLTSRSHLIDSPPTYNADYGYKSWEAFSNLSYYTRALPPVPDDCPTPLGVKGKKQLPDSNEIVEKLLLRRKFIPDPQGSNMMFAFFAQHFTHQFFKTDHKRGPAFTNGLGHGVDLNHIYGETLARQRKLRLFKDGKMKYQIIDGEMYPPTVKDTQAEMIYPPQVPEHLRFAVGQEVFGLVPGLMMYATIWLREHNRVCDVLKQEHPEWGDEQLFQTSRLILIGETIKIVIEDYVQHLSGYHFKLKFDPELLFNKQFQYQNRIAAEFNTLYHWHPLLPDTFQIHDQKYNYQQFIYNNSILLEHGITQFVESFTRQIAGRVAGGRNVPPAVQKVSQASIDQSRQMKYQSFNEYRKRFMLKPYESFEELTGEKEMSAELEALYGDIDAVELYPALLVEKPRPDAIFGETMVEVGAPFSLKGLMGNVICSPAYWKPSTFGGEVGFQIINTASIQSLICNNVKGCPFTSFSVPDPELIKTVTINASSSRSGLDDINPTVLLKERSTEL
Experiment: Inhibition of COX2 at 400 uM after 5 mins by spectrophotometric analysis
Unit % implied. Number only.

Worked set:
O=C(/C=C/c1ccc(O)c(O)c1)NCCc1c[nH]c2ccc(O)cc12 ... 70.5
O=C(/C=C/c1ccccc1)NCCc1c[nH]c2ccc(O)cc12 ... 8.2
COc1cc(/C=C/C(=O)NCCc2c[nH]c3ccc(O)cc23)cc(OC)c1O ... 27.2

Give recorded inhibition with Prostaglandin G/H synthase 2 (Homo sapiens) for the following molecule: CC(=O)Oc1ccccc1C(=O)O
19.3

Here is the next molecule: COc1ccc(/C=C/C(=O)NCCc2c[nH]c3ccc(O)cc23)cc1
6.5

Also need O=C(/C=C/c1ccc(O)cc1)NCCc1c[nH]c2ccc(O)cc12 , thanks.
13.9

Also need COc1ccc(/C=C/C(=O)NCCc2c[nH]c3ccc(O)cc23)cc1O , thanks.
8

Here is the next molecule: COc1cc(/C=C/C(=O)NCCc2c[nH]c3ccc(O)cc23)ccc1O
18.8

What do we get for COc1ccc(/C=C/C(=O)NCCc2c[nH]c3ccc(O)cc23)cc1OC ?
18.2

----------
Measurement Target: Prostaglandin G/H synthase 1 (Homo sapiens)
Experiment: Inhibition of COX1 at 400 uM after 5 mins by spectrophotometric analysis
Value Type: inhibition (%)
Please give a number only; it is taken to be in %.

O=C(/C=C/c1ccccc1)NCCc1c[nH]c2ccc(O)cc12 ... 18.2
COc1ccc(/C=C/C(=O)NCCc2c[nH]c3ccc(O)cc23)cc1 ... 21.3
COc1cc(/C=C/C(=O)NCCc2c[nH]c3ccc(O)cc23)ccc1O ... 2.7

I am curious: what inhibition value has been reported for O=C(/C=C/c1ccc(O)c(O)c1)NCCc1c[nH]c2ccc(O)cc12 ?
40.6

----------
Measurement Target: Prostaglandin G/H synthase 2 (Homo sapiens, UniProt P35354)
Sequence (P35354 whole entry): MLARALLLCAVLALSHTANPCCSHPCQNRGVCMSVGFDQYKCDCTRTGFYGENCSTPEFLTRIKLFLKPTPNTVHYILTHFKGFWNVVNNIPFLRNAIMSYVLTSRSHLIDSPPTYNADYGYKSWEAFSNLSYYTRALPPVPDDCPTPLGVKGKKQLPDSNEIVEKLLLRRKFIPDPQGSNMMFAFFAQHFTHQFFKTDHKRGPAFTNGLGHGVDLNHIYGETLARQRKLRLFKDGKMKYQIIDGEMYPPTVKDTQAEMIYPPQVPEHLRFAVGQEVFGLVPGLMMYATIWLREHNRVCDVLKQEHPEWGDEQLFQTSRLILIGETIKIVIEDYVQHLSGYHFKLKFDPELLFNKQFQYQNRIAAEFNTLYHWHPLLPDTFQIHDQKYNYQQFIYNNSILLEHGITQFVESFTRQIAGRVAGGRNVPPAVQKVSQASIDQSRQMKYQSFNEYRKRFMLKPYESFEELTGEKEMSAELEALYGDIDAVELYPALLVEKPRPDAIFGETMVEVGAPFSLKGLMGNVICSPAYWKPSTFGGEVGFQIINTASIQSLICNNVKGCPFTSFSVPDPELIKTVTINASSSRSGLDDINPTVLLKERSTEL
# Lookup of reported IC50 keyed by entry
Number in µM, nothing else.

O=C(/C=C/c1ccc(O)c(O)c1)NCCc1c[nH]c2ccc(O)cc12 ... 42.5

Any idea what its IC50 is? The compound is COc1cc(/C=C/C(=O)O)cc(OC)c1O [SINAPINATE]
28

----------
Some molecules, each annotated with its measured inhibition.
Measurement Target: Prostaglandin G/H synthase 1 (Homo sapiens, UniProt P23219)
Sequence (P23219 whole entry): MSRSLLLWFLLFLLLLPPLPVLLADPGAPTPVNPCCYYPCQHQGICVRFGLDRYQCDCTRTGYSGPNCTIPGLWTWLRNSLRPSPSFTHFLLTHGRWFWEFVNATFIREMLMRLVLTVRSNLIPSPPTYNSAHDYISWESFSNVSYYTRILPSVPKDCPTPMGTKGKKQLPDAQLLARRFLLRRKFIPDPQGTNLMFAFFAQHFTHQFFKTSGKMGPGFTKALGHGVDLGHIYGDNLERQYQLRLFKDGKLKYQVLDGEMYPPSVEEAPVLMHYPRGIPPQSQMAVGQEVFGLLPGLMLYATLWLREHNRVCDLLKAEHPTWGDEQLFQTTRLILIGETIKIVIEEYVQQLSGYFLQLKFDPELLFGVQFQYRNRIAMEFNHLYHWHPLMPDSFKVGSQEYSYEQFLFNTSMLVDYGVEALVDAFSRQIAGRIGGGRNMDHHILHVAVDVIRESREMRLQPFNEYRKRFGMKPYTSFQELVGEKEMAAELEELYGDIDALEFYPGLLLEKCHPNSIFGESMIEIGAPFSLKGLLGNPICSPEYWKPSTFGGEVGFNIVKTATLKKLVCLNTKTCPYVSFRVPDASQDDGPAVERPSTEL
Experiment: Inhibition of COX1 at 400 uM after 5 mins by spectrophotometric analysis
Kindly answer with a numeric value in %, unit omitted.

These recorded examples may help you get a feel for the data.
COc1cc(/C=C/C(=O)NCCc2c[nH]c3ccc(O)cc23)cc(OC)c1O [N-SINAPOYL SEROTONIN] ... 44.9
COc1ccc(/C=C/C(=O)NCCc2c[nH]c3ccc(O)cc23)cc1OC ... 29.9
O=C(/C=C/c1ccc(O)cc1)NCCc1c[nH]c2ccc(O)cc12 ... 12.5

# inhibition lookup, item COc1ccc(/C=C/C(=O)NCCc2c[nH]c3ccc(O)cc23)cc1O
7
